- MEASUREMENT TARGET: T1, hTRF2-DBD R496K (Homo sapiens, UniProt Q15554 SEQ:1-63)
- T1 chain: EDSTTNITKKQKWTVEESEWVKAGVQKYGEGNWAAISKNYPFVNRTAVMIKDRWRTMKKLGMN
- TEST DESCRIPTION: SPR; pH 6.8, 180 mM KCl, 293 K
- CONDITION: tags: N-terminal Met added; untagged, E. coli BL21(DE3) pET23b; label: biotin (13mer on SA chip)
QUANTITY KIND: Kd (µM)

| BINDER | EXPERIMENTAL RESULT |
| --- | --- |
| G7C (dsDNA) DNA 1: GTTAGGCTTAGGG DNA 2: CCCTAAGCCTAAC | 87 |
| T3G (dsDNA) DNA 1: GTGAGGGTTAGGG DNA 2: CCCTAACCCTCAC | 4.92 |
| T9G (dsDNA) DNA 1: GTTAGGGTGAGGG DNA 2: CCCTCACCCTAAC | 114 |
| tr13 (dsDNA) DNA 1: GTTAGGGTTAGGG DNA 2: CCCTAACCCTAAC | 0.764 |
